tested on: genotype 1a-H77 subgenomic replicon cell line; assay: microbe, parasite or virus in culture; type: cell-based, HCV; settings: Hepatitis C virus, read-out: EC50 1a
pEC50: −log10 of the molar value.

| structure_string | measured_on | pEC50 |
| --- | --- | --- |
| CC(C)(C)c1cc(N2CCC(=O)NC2=O)cc(C(=O)Nc2nccs2)c1O | genotype 1a-H77 subgenomic replicon cell line | < 6.00 |
| COc1cc(NS(C)(=O)=O)ccc1NC(=O)c1cc(N2CCC(=O)NC2=O)cc(C(C)(C)C)c1OC | genotype 1a-H77 subgenomic replicon cell line | 6.00 to 7.00 |
| CCc1cc(N2CCC(=O)NC2=O)cc(C(=O)Nc2ccc(NS(C)(=O)=O)cc2)c1O | genotype 1a-H77 subgenomic replicon cell line | < 6.00 |
| COc1c(-c2ccc3cc(NS(C)(=O)=O)ccc3c2)cc(-n2ccc(=O)[nH]c2=O)cc1S(C)(=O)=O | genotype 1a-H77 subgenomic replicon cell line | < 6.00 |
| COc1c(C#Cc2ccc(NS(C)(=O)=O)cc2)cc(N2CCC(=O)NC2=O)cc1C1CC1 | genotype 1a-H77 subgenomic replicon cell line | < 6.00 |
| COc1c(-c2nc3cc(NS(C)(=O)=O)ccc3o2)cc(N2CCC(=O)NC2=O)cc1C(C)(C)C | genotype 1a-H77 subgenomic replicon cell line | 6.00 to 7.00 |
| COc1c(C(=O)Nc2ccc3c(c2)CCC(=O)N3)cc(N2CCC(=O)NC2=O)cc1C(C)(C)C | genotype 1a-H77 subgenomic replicon cell line | < 6.00 |
| CC(C)(C)c1cc(C(=O)Nc2ccc(NS(C)(=O)=O)cc2)cc(N2CCC(=O)NC2=O)c1 | genotype 1a-H77 subgenomic replicon cell line | < 6.00 |
